All values here come from patent US20210292423A1.

Reported values of Kd for individual entries
biological target: T1, human CD3ε/δ-Fc fusion protein (soluble recombinant CD3ε/δ complex) (human, UniProt P04234 22-105); assay: SPR Biacore, Fab
T1 construct: also called huCD3ε/δ; huCD3; not shown: hinge, CH2, CH3 of human IgG with tag
T1 sequence (chain, as listed by the source mutant, chain 1 of 2): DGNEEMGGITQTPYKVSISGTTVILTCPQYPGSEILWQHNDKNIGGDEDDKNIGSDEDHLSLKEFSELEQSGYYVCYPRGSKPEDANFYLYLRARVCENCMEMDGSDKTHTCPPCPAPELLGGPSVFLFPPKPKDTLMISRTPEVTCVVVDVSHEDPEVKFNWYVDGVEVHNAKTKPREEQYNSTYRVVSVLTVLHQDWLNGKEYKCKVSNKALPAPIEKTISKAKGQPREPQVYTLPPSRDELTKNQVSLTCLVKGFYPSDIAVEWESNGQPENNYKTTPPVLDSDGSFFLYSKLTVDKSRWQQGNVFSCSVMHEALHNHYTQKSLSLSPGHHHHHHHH
T1 sequence (P04234 22-105, stated change not applied, chain 2 of 2): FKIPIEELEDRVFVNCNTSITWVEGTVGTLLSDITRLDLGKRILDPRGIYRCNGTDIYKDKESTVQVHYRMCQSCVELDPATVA
Report the value in nM with no unit label.

BINDER | Kd, nM
4B4-D7 Fab (Fab, V domains shown, also called BDW-4B4-D7) VH: EVQLVETGGRLVQPGRSLKLTCATSGFTFSNAWMHWVRQSPEKQLEWVAQIKARSNNYATYYAESVKGRFTISRDDSKSTIYLQMNSLKEEDTAIYYCRGTYYASKPFDYWGQGVMVTVSS VL: DVVMTQTPVSLSVSLGGQVSISCRSSQSLVHDNGNTYLSWSLQRPGQSPQVLIYKVSNRFSGTSDRFTGSGSGTDFTLKISRVEPDDLGVYYCGQGTQYPFTFGSGTKLEIKR | 8.79
humanized 4B4 Fab 4B4_2 (VL1b, VH1B) (Fab, V domains shown, expressed as Fab-fragment) VH: QVQLVETGGGLVKPGQSLKLTCATSGFTFSNAWMHWVRQSPEKGLEWVAQIKARSNNYATYYAVSVKGRFTISRDDSKSTIYLQMNSLTPEDTAIYYCRGTYYASKPFDYWGQGVMVTVSS VL: DVVMTQTPVSLSVSVGGRVSISCRSSQSLVHDNANTYLSWSLQKPGKSPKVLIYKVSNRFSGVSSRFTGSGSGTDFTLKISSVQPDDLGVYYCGQGTQYPFTFGSGTKLEIK | 7.48
humanized 4B4 Fab 4B4_1 (VL1a, VH1B) (Fab, V domains shown, expressed as Fab-fragment) VH: QVQLVETGGGLVKPGQSLKLTCATSGFTFSNAWMHWVRQSPEKGLEWVAQIKARSNNYATYYAVSVKGRFTISRDDSKSTIYLQMNSLTPEDTAIYYCRGTYYASKPFDYWGQGVMVTVSS VL: DVVMTQTPVSLSVSVGGRVSISCRSSQSLVHDNGNTYLSWSLQKPGKSPKVLIYKVSNRFSGVSSRFTGSGSGTDFTLKISSVQPDDLGVYYCGQGTQYPFTFGSGTKLEIK | 2.77
humanized 4B4 Fab 4B4_6 (VL1a, VH1A) (Fab, V domains shown, expressed as Fab-fragment) VH: QVQLVETGGGLVKPGQSLKLTCATSGFTFSNAWMHWVRQSPEKGLEWVAQIKARSNNYATYYAESVKGRFTISRDDSKSTIYLQMNSLTPEDTAIYYCRGTYYASKPFDYWGQGVMVTVSS VL: DVVMTQTPVSLSVSVGGRVSISCRSSQSLVHDNGNTYLSWSLQKPGKSPKVLIYKVSNRFSGVSSRFTGSGSGTDFTLKISSVQPDDLGVYYCGQGTQYPFTFGSGTKLEIK | 1.24

Now consider a different binder.
What value of Kd has been recorded for this entry: humanized 4B4 Fab 4B4_20 (VL2F, VH6C) (Fab, V domains shown, expressed as Fab-fragment) VH: QVQLVESGGGVVQPGRSLRLSCAASGFTFSNAWMHWVRQAPGKQLEWVAQIKARSNNYATYYADSVKGRFTISRDDSKSTLYLQMNSLRAEDTAVYYCRGTYYASKPFDYWGQGTLVTVSS VL: DIVMTQTPLSLSVTPGQPASISCKSSQSLVHDNANTYLSWYLQKPGQSPQSLIYKVSNRFSGVPDRFSGSGSGTDFTLKISRVEAEDVGVYYCGQGTQYPFTFGSGTKVEIK 33.5
